B1: CPEB3 Ribozyme (parent)
chain: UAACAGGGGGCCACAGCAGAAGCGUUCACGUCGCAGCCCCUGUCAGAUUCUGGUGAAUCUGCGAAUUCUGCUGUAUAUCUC

# Variants of: B1
# experiment_summary: self-cleavage, relative activity (ratio to wild type); higher = more cleavage; in vitro, sequencing
Classify by self-cleavage. Ranges: group A: < 0.2; group B: ≥ 0.2 and < 0.7; group C: ≥ 0.7

Sample answers from the record:
- variant_name: "G16A U43A"
  label: "group C"
- variant_name: "G10A U54C"
  label: "group A"
- variant_name: "G9A A20U"
  label: "group B"
- variant_name: "U31A U80C"
  label: "group B"
- variant_name: "C23A U58A"
  label: "group A"
- variant_name: "U49A U51C"
  label: "group B"
- variant_name: "G53U U74C"
  label: "group C"
- variant_name: "A5C A13U"
  label: "group C"
- variant_name: "U54A A57G"
  label: "group C"
- variant_name: "A28G U49A"
  label: "group B"

Qu. Quick check: band for G46U U54C
Ans. group A

Qu. Quick check: band for C34A G46U
Ans. group A

Qu. Quick check: band for A2G A5G
Ans. group C
